- Test system: Escherichia coli TOP10;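 also: peptides expressed intracellularly from a pBAD plasmid library in pooled LB shake-flask culture, induced with 0.3% L-arabinose, DNA abundance read by NGS, three biological replicates, DESeq2 with apeglm shrinkage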
- test method notes: shrunken log2 fold change of peptide-encoding DNA abundance (4.5 h post-induction vs induction); higher = less antimicrobial activity (less host growth inhibition)
- reported conditions: time post-induction: 4.5 h; library: site-saturation at positions 5, 18, 19, 20
measured property: shrunken log2 fold change
The reply should be a number, written without any unit.

Illustrative cases are given below, each with its answer.
{"residues": "RRIRERPPRLPRPRPRPHTDPRP", "experimental target": "Escherichia coli TOP10", "shrunken log2 fold change": -0.546}
{"residues": "RRIRCRPPRLPRPRPRPTYPPRP", "experimental target": "Escherichia coli TOP10", "shrunken log2 fold change": -0.274}
{"residues": "RRIRRRPPRLPRPRPRPVCTPRP", "experimental target": "Escherichia coli TOP10", "shrunken log2 fold change": 0.575}

Need shrunken log2 fold change, item RRIRSRPPRLPRPRPRPQGEPRP -0.0953

Thanks! And RRIRQRPPRLPRPRPRPKEHPRP ? -0.117

Thanks! And RRIRIRPPRLPRPRPRPSSHPRP ? -1.02
